Tested on: beta-TC6 cells
testDescription: Insulin HTRF assay, relative activity Ar normalized to sunitinib
Assay type: cell-based
protocolConditions: Mus musculus, normalized to positive control sunitinib (5 µM = 100%), Table 10
measurementType: Emax

Below are worked cases with known answers.
[[record]]
molecule = "COc1ccc(-c2cnc3cnc(-c4cccs4)cn23)cc1"
measurementtype = "Emax"
testvalue = "20 to 50%"

[[record]]
molecule = "Cn1cc(-c2cnc3cnc(-c4cc5ccccc5s4)cn23)cn1"
measurementtype = "Emax"
testvalue = "20 to 50%"

[[record]]
molecule = "CCC(CO)Nc1ccc2ncc(-c3ccccc3Cl)n2n1 (stereo not shown)"
measurementtype = "Emax"
testvalue = "10 to 20%"

[[record]]
molecule = "COc1ccccc1-c1ccc2ncc(-c3ccc(F)c(Cl)c3)n2n1"
measurementtype = "Emax"
testvalue = "20 to 50%"

[[record]]
molecule = "OCc1cccc(-c2cnc3cnc(-c4cccs4)cn23)c1"
measurementtype = "Emax"
testvalue = "20 to 50%"

[[record]]
molecule = "O=C(NC1CC1)c1ccc(-c2cn3c(-c4ccc(O)cc4)cnc3cn2)cc1"
measurementtype = "Emax"
testvalue = "20 to 50%"

[[record]]
molecule = "CC(=O)c1cccc(-c2cn3c(NC(=O)CC4CC4)cnc3cn2)c1"
measurementtype = "Emax"
testvalue = "20 to 50%"

[[record]]
molecule = "Fc1cccc(-c2ccc3ncc(-c4ccc5c(c4)OCO5)n3n2)c1"
measurementtype = "Emax"
testvalue = "20 to 50%"

[[record]]
molecule = "Cc1cc(-c2cn3c(-c4ccncc4)cnc3cn2)cc(C)c1O"
measurementtype = "Emax"
testvalue = "20 to 50%"

[[record]]
molecule = "CN(C)C(=O)c1ccc(-c2cnc3cnc(-c4ccsc4)cn23)cc1"
measurementtype = "Emax"
testvalue = "20 to 50%"


Give me Emax for each of these molecules, listed below.
1. c1cc2c(cc1CNc1ccc3ncc(-c4ccc(N5CCOCC5)cc4)n3n1)OCO2
2. CS(=O)(=O)Nc1cccc(-c2cn3c(-c4cccs4)cnc3cn2)c1
3. c1ccc(Oc2cccc(-c3ccc4nnc(-c5ccncc5)n4c3)c2)cc1
4. COc1cc(-c2cnc3cnc(-c4ccc(N)nc4)cn23)ccc1O
5. CCOc1ccc(-c2cnc3cccnn23)cc1
6. Cn1cc(-c2cn3c(-c4ccc(O)cc4)cnc3cn2)cn1
7. Brc1cnc2ccc(NCCCN3CCOCC3)nn12
8. COc1cc(OC)cc(-c2cnc3cnc(-c4ccccc4N(C)C)cn23)c1

1: 20 to 50%; 2: 20 to 50%; 3: 20 to 50%; 4: 20 to 50%; 5: 10 to 20%; 6: 20 to 50%; 7: 10 to 20%; 8: 20 to 50%

Form entry - test system: beta-TC6 cells; read-out: Emax; molecule: FC(F)(F)c1cccc(C#Cc2ccc3nnc(-c4ccncc4)n3c2)c1
10 to 20%
